# PROTOCOL TEXT: chemical genetic growth profiling, strain panel (AID 1159580);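 note: tested at 20 µM; growth read once vehicle control cultures reached saturation at 30 °C; 1 = growth at the plate median or of vehicle wells; lower values mean less growth of the strain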
# EXPERIMENTAL SETUP: S. cerevisiae deletion strains, growth OD, locus YKL068W, active compounds read low
Hit rate of the full screen: of about 5,500 compounds, about 2,000 (36%) were called active. Inconclusive results (about 18%) are left out. This is one part of the list.
ASSAY READOUT: normalized growth
Provide a numeric answer; units are not to be included.

Example results:
Record request: normalized growth value, item "COc1cc(O)c2c(=O)cc(-c3ccc(O)cc3)oc2c1"
1

Record request: normalized growth value, item "O=C(O)c1cc(O)ccc1O"
0.992

Record request: normalized growth value, item CCC(=O)OCC(=O)C1(OC(=O)CC)C(C)CC2C3CCC4=CC(=O)C=CC4(C)C3(Cl)C(O)CC21C (configuration not stated)
0.989

Record request: normalized growth value, item "COc1ccc(-c2cc(=O)c3c(O)c(OC)c(O[C@H]4O[C@H](CO[C@@H]5O[C@@H](C)[C@H](O)[C@@H](O)[C@H]5O)[C@@H](O)[C@H](O)[C@H]4O)cc3o2)cc1"
1.02

Record request: normalized growth value, item "COc1ccc(-c2cc(=O)c3c(O)c(OC)c(OC)cc3o2)cc1O"
0.969

Record request: normalized growth value, item "CNC[C@H](O)c1cccc(O)c1"
1.01

Record request: normalized growth value, item "N#Cc1c(Cl)cccc1Cl"
1.01

Record request: normalized growth value, item Oc1ccc2c3c1OC1[C@@H](O)CC[C@@]4(O)[C@@H](C2)N(CC2CCC2)CC[C@]314 (some centres not stated)
1.01

Others:
Record request: normalized growth value, item "COc1cc(C(=O)O)cc(OC)c1OC"
1.04

Record request: normalized growth value, item "CN(C)CC[C@H](c1ccc(Cl)cc1)c1ccccn1"
0.997

Record request: normalized growth value, item "O=C(O)CN(CCN(CC(=O)O)CC(=O)O)CC(=O)O"
0.996

Record request: normalized growth value, item "COc1ccc(-c2cc(=O)c3c(O)cc(O)cc3o2)cc1"
0.979

Record request: normalized growth value, item CCOC(=O)CC(SP(=S)(OC)OC)C(=O)OCC (configuration not stated)
1.01

Record request: normalized growth value, item "COc1cc(C(=O)N2CCOCC2)cc(OC)c1OC"
0.988

Record request: normalized growth value, item CCC(=O)OCC(=O)[C@@]1(OC(=O)CC)[C@@H](C)CC2C3CCC4=CC(=O)C=C[C@]4(C)C3(F)[C@@H](O)C[C@@]21C (some centres not stated)
0.958

Record request: normalized growth value, item "NC(=O)c1ccc([N+](=O)[O-])cc1Cl"
0.977

Record request: normalized growth value, item CCC(=O)O[C@]1(C(=O)CCl)[C@@H](C)CC2C3CCC4=CC(=O)C=C[C@]4(C)[C@@]3(F)[C@@H](O)C[C@@]21C (some centres not stated)
0.972

Record request: normalized growth value, item Cc1c(OCC(F)(F)F)ccnc1CS(=O)c1nc2ccccc2[nH]1 (configuration not stated)
0.997

Data origin, for the record: PubChem BioAssay AID1159580
